Recorded Control of weed species after pre-emergence application, SETFA (damage score 0-5) values for a group of compounds are listed next.
Test system: Setaria faberi (SETFA)
method.description: Pre-emergence herbicidal activity, glasshouse pot test
Format: in vivo
Parameters: key: 5=total damage to plant; 0=no damage to plant
measurement.parameters: Rate 1000 g/ha; sprayed one day after sowing; evaluated after 13 days
property.measured: Control of weed species after pre-emergence application, SETFA (damage score 0-5)

smiles.data: CC(C)(C)OC(=O)N(C(=O)OC(C)(C)C)c1ncc(-c2cncc(F)c2)nc1C(F)(F)F
numeric.result: 5
//
smiles.data: CC(C)(C)OC(=O)Nc1ncc(-c2cncc(F)c2)nc1C(F)(F)F
numeric.result: 5
//
smiles.data: CC(C)(C)OC(=O)N(C(=O)OC(C)(C)C)c1ncc(-c2cncc(F)c2)nc1Br
numeric.result: 1
//
smiles.data: CCc1nc(-c2cncc(F)c2)cnc1N(C(=O)OC(C)(C)C)C(=O)OC(C)(C)C
numeric.result: 5
//
smiles.data: CC(C)(C)OC(=O)OCc1nc(-c2cncc(F)c2)cnc1N(C(=O)OC(C)(C)C)C(=O)OC(C)(C)C
numeric.result: 4
//
smiles.data: CC(C)(C)OC(=O)Nc1ncc(-c2cncc(F)c2)nc1CO
numeric.result: 0
//
smiles.data: Cc1nc(-c2cncc(F)c2)cnc1N(C(=O)OC(C)(C)C)C(=O)OC(C)(C)C
numeric.result: 5
//
smiles.data: Cc1nc(-c2cncc(F)c2)cnc1N(C)C(=O)OC(C)(C)C
numeric.result: 5
